The entries below come with measured PBM binding z-score values attached.
Test system: PPARg:RXRa 270nM:90nM, anti-RXR (NR concentration 270 nM, RXRa partner concentration 90 nM)
Experiment: PBM binding z-score (relative to random genomic background probes); higher = stronger binding; sequences stand for … in GC…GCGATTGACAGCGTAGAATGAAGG
Answer with a bare number; do not write a unit.

Some solved entries appear below for comparison.
1. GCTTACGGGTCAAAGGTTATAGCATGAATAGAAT = 9.42
2. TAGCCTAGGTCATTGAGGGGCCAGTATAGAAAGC = 2.48
3. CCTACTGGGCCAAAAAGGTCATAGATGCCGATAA = 4.29

# next sequence below
What value of PBM binding z-score has been recorded for this entry: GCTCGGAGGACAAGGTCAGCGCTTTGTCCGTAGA
2.1

====

Test system: VDR:RXRa (NR concentration 270 nM, RXRa partner concentration 90 nM)
Assay: PBM binding z-score (relative to random genomic background probes); higher = stronger binding; sequences stand for … in GC…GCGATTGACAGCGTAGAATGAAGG
The entries below come with measured PBM binding z-score values attached.
// print number alone

Check out these entries, answers already filled in.
1) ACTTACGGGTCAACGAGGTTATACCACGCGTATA = 7.92
2) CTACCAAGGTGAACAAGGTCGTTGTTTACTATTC = 6.2
3) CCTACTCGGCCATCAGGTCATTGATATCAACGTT = 2.37
4) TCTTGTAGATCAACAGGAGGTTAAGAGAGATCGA = 0.733
5) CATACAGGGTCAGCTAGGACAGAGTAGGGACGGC = 4.03
6) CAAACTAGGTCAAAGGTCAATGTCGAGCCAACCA = 6.33
7) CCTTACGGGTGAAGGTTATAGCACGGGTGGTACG = 0.0707
8) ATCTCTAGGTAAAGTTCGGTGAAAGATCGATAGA = 0.603
9) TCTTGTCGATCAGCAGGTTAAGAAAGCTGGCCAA = 0.358
10) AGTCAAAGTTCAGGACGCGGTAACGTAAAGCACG = 2.37

API: value(readout=PBM binding z-score, system=VDR:RXRa (NR concentration 270 nM, RXRa partner concentration 90 nM)) for record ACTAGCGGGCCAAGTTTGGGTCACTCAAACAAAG
0.318

Quick one: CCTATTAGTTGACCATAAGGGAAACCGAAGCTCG
0.226

Please answer likewise for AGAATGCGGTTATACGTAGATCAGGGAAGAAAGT
-0.334

And the next one, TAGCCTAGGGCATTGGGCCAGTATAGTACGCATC ?
-0.414

Next up: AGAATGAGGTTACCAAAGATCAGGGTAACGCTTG
1.6

Similarly, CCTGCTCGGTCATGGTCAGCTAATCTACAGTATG ?
-0.315

Next record, please: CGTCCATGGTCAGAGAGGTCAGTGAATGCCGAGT
4.63

Okay, and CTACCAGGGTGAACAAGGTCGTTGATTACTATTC ?
6.27

One more sequence: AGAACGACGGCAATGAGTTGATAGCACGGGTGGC
-0.0161

Now consider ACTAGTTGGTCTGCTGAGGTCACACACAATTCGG .
3.54

Request: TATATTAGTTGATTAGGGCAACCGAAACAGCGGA
0.452

Entry to check: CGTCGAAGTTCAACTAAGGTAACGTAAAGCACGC
3.43

Cool, now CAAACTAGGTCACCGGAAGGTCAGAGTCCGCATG
4.86

// same read-out, input: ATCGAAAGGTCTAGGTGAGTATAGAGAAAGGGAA
0.435
